Overview of recorded CMVIC pSmad-3, IC50 for various binders
Biological target: TGFβ1 (R&D Systems)
Sequence (P01137 279-390): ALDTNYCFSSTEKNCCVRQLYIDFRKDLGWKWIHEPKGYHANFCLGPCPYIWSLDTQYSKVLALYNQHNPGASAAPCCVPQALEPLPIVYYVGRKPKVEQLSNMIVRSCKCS
Experiment: cell-based or functional assay
Reply with just the number (in nM).

Can-SL501-VH3 P109A / Can-SL501-VL2 (antibody, V domains shown) VH: EVQLVESGGDLVKPGGSLRLSCVASGFTFSSYGMHWVRQAPGKELEWVAVISYDGSIKYYADAVKGRFTISRDNAKNTLYLQMNSLRAEDTAVYYCARTGEYSGYDTDAQYSWGQGTTVTVSS VL: EIVMTQSPGSLAGSAGESVSINCRASQGIGDDLGWYQQKPGERPKLLIYGTSTLQSGVPARFSSSGSGTDFTLTINNLQAEDVGDYYCLQDSNYPLTFGAGTK    20.8
Can-SL501-VH3 P109T / Can-SL501-VL2 (antibody, V domains shown) VH: EVQLVESGGDLVKPGGSLRLSCVASGFTFSSYGMHWVRQAPGKELEWVAVISYDGSIKYYADAVKGRFTISRDNAKNTLYLQMNSLRAEDTAVYYCARTGEYSGYDTDTQYSWGQGTTVTVSS VL: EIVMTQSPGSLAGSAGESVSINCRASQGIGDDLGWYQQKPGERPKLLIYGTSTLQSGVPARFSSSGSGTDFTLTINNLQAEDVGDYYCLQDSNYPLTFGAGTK    30
Can-SL501-VH3 Y111E / Can-SL501-VL2 (antibody, V domains shown) VH: EVQLVESGGDLVKPGGSLRLSCVASGFTFSSYGMHWVRQAPGKELEWVAVISYDGSIKYYADAVKGRFTISRDNAKNTLYLQMNSLRAEDTAVYYCARTGEYSGYDTDPQESWGQGTTVTVSS VL: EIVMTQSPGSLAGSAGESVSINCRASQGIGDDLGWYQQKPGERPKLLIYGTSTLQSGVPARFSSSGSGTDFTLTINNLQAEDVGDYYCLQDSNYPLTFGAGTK    46.9
Can-SL501-VH3 S112Q / Can-SL501-VL2 (antibody, V domains shown) VH: EVQLVESGGDLVKPGGSLRLSCVASGFTFSSYGMHWVRQAPGKELEWVAVISYDGSIKYYADAVKGRFTISRDNAKNTLYLQMNSLRAEDTAVYYCARTGEYSGYDTDPQYQWGQGTTVTVSS VL: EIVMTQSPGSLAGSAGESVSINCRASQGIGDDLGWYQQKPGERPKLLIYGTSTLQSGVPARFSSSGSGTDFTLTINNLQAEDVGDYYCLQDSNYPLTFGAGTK    5.02

Here is another binder to look at.
input: Supply recorded CMVIC pSmad-3, IC50 for Can-SL501-VH3 Q110N / Can-SL501-VL2 (antibody, V domains shown) VH: EVQLVESGGDLVKPGGSLRLSCVASGFTFSSYGMHWVRQAPGKELEWVAVISYDGSIKYYADAVKGRFTISRDNAKNTLYLQMNSLRAEDTAVYYCARTGEYSGYDTDPNYSWGQGTTVTVSS VL: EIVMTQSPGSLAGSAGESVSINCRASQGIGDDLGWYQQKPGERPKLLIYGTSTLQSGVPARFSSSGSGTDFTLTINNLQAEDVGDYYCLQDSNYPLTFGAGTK here.
output: 8.95
